meta.source: the supplement of paper PMC4862054

System: MDA-MB-453
assay name: normalised viability (% of control), CellTiter-Blue; higher = more viable cells (100 = DMSO, 0 = benzethonium chloride kill control)
condition details: incubation time: 72 h
I'd be grateful if you could share measured normalised viability for these entries.
Give the value, in units of %, as a plain number.

Input line: Any idea what normalised viability was measured for COC1=C2C[C@@H](C)C[C@H](OC)[C@H](O)[C@@H](C)/C=C(\C)[C@H](OC(N)=O)[C@@H](OC)/C=C\C=C(/C)C(=O)NC(=CC1=O)C2=O [Geldanamycin] (1 nM) ?
Output line: 108

Input line: Recorded normalised viability for O=c1[nH]c(=O)n([C@H]2C[C@H](O)[C@@H](CO)O2)cc1F [Floxuridine] (1 nM) , please?
Output line: 108

Input line: Quick one: normalised viability for CC(=O)O[C@H]1C(=O)[C@@]2(C)[C@H]([C@H](OC(=O)c3ccccc3)[C@]3(O)C[C@H](OC(=O)[C@H](O)[C@@H](NC(=O)c4ccccc4)c4ccccc4)C(C)=C1C3(C)C)[C@]1(OC(C)=O)CO[C@@H]1C[C@@H]2O [Paclitaxel] (0.1 nM) ?
Output line: 97.5

Input line: So what does the record say about normalised viability for c1ccc(C2CN3CCSC3=N2)cc1 (stereo unspecified) [Tetramisole] (1 nM) ?
Output line: 106

Input line: Requested read-out: normalised viability. Entry: CN1CCN(c2ccc3nc(-c4c(N)c5c(F)cccc5[nH]c4=O)[nH]c3c2)CC1 [Dovitinib] (1 nM)
Output line: 98.3

Input line: Any idea what normalised viability was measured for CS(=O)(=O)OCCCCOS(C)(=O)=O [Busulfan] (10 nM) ?
Output line: 117

----------
Can you tell me normalised viability for the items I'm about to list?
Test system: BT-549
assay name: normalised viability (% of control), CellTiter-Blue; higher = more viable cells (100 = DMSO, 0 = benzethonium chloride kill control)
condition details: incubation time: 72 h
# do not omit the unit; it follows the number

Input line: Item CCOc1cc2ncc(C#N)c(Nc3ccc(OCc4ccccn4)c(Cl)c3)c2cc1NC(=O)/C=C/CN(C)C [Neratinib] (0.1 nM) has what recorded normalised viability?
Output line: 105%

Input line: Query (compound): O=c1[nH]cc(F)c(=O)[nH]1 [Fluorouracil] (1 nM) ; field requested: normalised viability
Output line: 114%

Input line: Given the entry C[C@@]1(C(=O)Nc2ccc(F)nc2)CCCN1c1nc(Nc2cc(C3CC3)n[nH]2)c2cccn2n1 (1 nM) , report its measured normalised viability.
Output line: 88.2%

Input line: Which normalised viability is listed for CC(=O)O[C@H]1C(=O)[C@@]2(C)[C@H]([C@H](OC(=O)c3ccccc3)[C@]3(O)C[C@H](OC(=O)[C@H](O)[C@@H](NC(=O)c4ccccc4)c4ccccc4)C(C)=C1C3(C)C)[C@]1(OC(C)=O)CO[C@@H]1C[C@@H]2O [Paclitaxel] (0.1 nM) ?
Output line: 116%

Input line: Look up normalised viability for this compound: CCS(=O)(=O)c1cccc(-c2cc(C(=O)NC3CCN(C)CC3)c(C)c3[nH]c4ncc(C)cc4c23)c1 [TAK-901] (0.1 nM)
Output line: 112%

Input line: Reported normalised viability, compound C#Cc1cccc(Nc2ncnc3cc(OC)c(OCCCCCCC(=O)NO)cc23)c1 [CUDC-101] (1 nM) : ____
Output line: 96%

----------
Tested on: MDA-MB-436
assay name: normalised viability (% of control), CellTiter-Blue; higher = more viable cells (about 100 = DMSO control)
condition details: 100 nM; incubation time: 72 h
metric: normalised viability
Include the unit right after the number.

Input line: Looking for the measured normalised viability of CC(C)C[C@H](NC(=O)[C@H](Cc1ccccc1)NC(=O)c1cnccn1)B(O)O [Bortezomib] , can you help?
Output line: 12.2%

Input line: GET /values?readout=normalised viability&item= CCS(=O)(=O)c1cccc(-c2cc(C(=O)NC3CCN(C)CC3)c(C)c3[nH]c4ncc(C)cc4c23)c1 [TAK-901]
Output line: 96.1%

Input line: I am curious: what normalised viability value has been reported for CC(C)(C)c1cc(NC(=O)Nc2ccc(-c3cn4c(n3)sc3cc(OCCN5CCOCC5)ccc34)cc2)no1 [Quizartinib] ?
Output line: 45.7%

Input line: Param item = CS(=O)(=O)OCCCCOS(C)(=O)=O [Busulfan] ; retrieve measured normalised viability.
Output line: 106%

----------
System: Hs578T
assay name: normalised response (% of control), CellTox Green; higher = less cell death (100 = DMSO, 0 = benzethonium chloride kill control)
condition details: incubation time: 72 h
I'd be grateful if you could share measured normalised response for these entries.
# number only, unit % dropped from output

Input line: Sample CC(C)C[C@H](NC(=O)[C@H](Cc1ccccc1)NC(=O)c1cnccn1)B(O)O [Bortezomib] (100 nM) — what was its normalised response?
Output line: 15.4

Input line: Reported normalised response, compound COc1ncc(-c2ccc3nccc(-c4ccnnc4)c3c2)cc1NS(=O)(=O)c1ccc(F)cc1F (1000 nM) : ____
Output line: 35.8

Input line: normalised response lookup needed for CC(=O)O[C@H]1C(=O)[C@@]2(C)[C@H]([C@H](OC(=O)c3ccccc3)[C@]3(O)C[C@H](OC(=O)[C@H](O)[C@@H](NC(=O)c4ccccc4)c4ccccc4)C(C)=C1C3(C)C)[C@]1(OC(C)=O)CO[C@@H]1C[C@@H]2O [Paclitaxel] (10 nM) , thanks.
Output line: 34.1

Input line: Requested field: normalised response. Item: CC(C)C[C@H](NC(=O)[C@H](Cc1ccccc1)NC(=O)c1cnccn1)B(O)O [Bortezomib] (1000 nM)
Output line: 39.2

Input line: Looking for the measured normalised response of C[C@@]1(C(=O)Nc2ccc(F)nc2)CCCN1c1nc(Nc2cc(C3CC3)n[nH]2)c2cccn2n1 (1000 nM) , can you help?
Output line: 110

Input line: Quick one: normalised response of CN1CCN(c2ccc3nc(-c4c(N)c5c(F)cccc5[nH]c4=O)[nH]c3c2)CC1 [Dovitinib] (100 nM) ?
Output line: 93.3

Input line: Using the record for CCCC(CCC)C(=O)O [Valproic acid] (10000 nM) , report its normalised response.
Output line: 100

Input line: I have this compound here, COC1=CC(c2cc3ccccc3[nH]2)=N/C1=C\c1[nH]c(C)cc1C [Obatoclax] (10000 nM) , and I need its recorded normalised response.
Output line: 129

Input line: Param item = COC1=CC(c2cc3ccccc3[nH]2)=N/C1=C\c1[nH]c(C)cc1C [Obatoclax] (1000 nM) ; retrieve measured normalised response.
Output line: 107

Input line: Query (compound): CCS(=O)(=O)c1cccc(-c2cc(C(=O)NC3CCN(C)CC3)c(C)c3[nH]c4ncc(C)cc4c23)c1 [TAK-901] (1000 nM) ; field requested: normalised response
Output line: 106

Input line: Query: normalised response; subject: C[C@@H]1CCN(C(=O)CC#N)C[C@@H]1N(C)c1ncnc2[nH]ccc12 [Tofacitinib] (500 nM)
Output line: 115

Input line: Any idea what normalised response was measured for COc1cccc2c1C(=O)c1c(O)c3c(c(O)c1C2=O)C[C@@](O)(C(C)=O)C[C@@H]3O[C@H]1C[C@H](N)[C@H](O)[C@H](C)O1 [Daunorubicin] (100 nM) ?
Output line: 90.7

Input line: Field request: normalised response | item: Cn1cnc2c(F)c(Nc3ccc(Br)cc3F)c(C(=O)NOCCO)cc21 [MEK-162] (10 nM)
Output line: 108

Input line: Could you share which normalised response value was measured for CS(=O)(=O)OCCCCOS(C)(=O)=O [Busulfan] (10000 nM) ?
Output line: 94.5

Input line: Reported normalised response, compound COc1ncc(-c2ccc3nccc(-c4ccnnc4)c3c2)cc1NS(=O)(=O)c1ccc(F)cc1F (10 nM) : ____
Output line: 95

Input line: Give its normalised response value. Item: O=c1[nH]c(=O)n([C@H]2C[C@H](O)[C@@H](CO)O2)cc1F [Floxuridine] (100 nM)
Output line: 103

Input line: Recorded normalised response for FC(F)c1nc2ccccc2n1-c1nc(N2CCOCC2)nc(N2CCOCC2)n1 [ZSTK474] (100 nM) , please?
Output line: 102

Input line: GET /values?readout=normalised response&item= COc1cccc2c1C(=O)c1c(O)c3c(c(O)c1C2=O)C[C@@](O)(C(C)=O)C[C@@H]3O[C@H]1C[C@H](N)[C@H](O)[C@H](C)O1 [Daunorubicin] (1000 nM)
Output line: 144

Input line: I have this compound here, CCOc1cc2ncc(C#N)c(Nc3ccc(OCc4ccccn4)c(Cl)c3)c2cc1NC(=O)/C=C/CN(C)C [Neratinib] (100 nM) , and I need its recorded normalised response.
Output line: 90.3

Input line: Can you share its normalised response? I mean this compound: COC(=O)C[C@](O)(CCCC(C)(C)O)C(=O)O[C@@H]1C(OC)=C[C@]23CCCN2CCc2cc4c(cc2[C@H]13)OCO4 [Omacetaxine] (10000 nM)
Output line: 33.9
